target: hFASN enzyme (full length) (Homo sapiens, UniProt P49327); construct: 10 μL hFASN enzyme (full length, 300 ng, purified in house); made in house; experiment: Fatty Acid Synthase (FASN) Inhibition Scintillation Proximity Assay; assay type: biochemical; settings: read-out: FASN % Effect @1E−05M
Sequence (P49327 whole entry): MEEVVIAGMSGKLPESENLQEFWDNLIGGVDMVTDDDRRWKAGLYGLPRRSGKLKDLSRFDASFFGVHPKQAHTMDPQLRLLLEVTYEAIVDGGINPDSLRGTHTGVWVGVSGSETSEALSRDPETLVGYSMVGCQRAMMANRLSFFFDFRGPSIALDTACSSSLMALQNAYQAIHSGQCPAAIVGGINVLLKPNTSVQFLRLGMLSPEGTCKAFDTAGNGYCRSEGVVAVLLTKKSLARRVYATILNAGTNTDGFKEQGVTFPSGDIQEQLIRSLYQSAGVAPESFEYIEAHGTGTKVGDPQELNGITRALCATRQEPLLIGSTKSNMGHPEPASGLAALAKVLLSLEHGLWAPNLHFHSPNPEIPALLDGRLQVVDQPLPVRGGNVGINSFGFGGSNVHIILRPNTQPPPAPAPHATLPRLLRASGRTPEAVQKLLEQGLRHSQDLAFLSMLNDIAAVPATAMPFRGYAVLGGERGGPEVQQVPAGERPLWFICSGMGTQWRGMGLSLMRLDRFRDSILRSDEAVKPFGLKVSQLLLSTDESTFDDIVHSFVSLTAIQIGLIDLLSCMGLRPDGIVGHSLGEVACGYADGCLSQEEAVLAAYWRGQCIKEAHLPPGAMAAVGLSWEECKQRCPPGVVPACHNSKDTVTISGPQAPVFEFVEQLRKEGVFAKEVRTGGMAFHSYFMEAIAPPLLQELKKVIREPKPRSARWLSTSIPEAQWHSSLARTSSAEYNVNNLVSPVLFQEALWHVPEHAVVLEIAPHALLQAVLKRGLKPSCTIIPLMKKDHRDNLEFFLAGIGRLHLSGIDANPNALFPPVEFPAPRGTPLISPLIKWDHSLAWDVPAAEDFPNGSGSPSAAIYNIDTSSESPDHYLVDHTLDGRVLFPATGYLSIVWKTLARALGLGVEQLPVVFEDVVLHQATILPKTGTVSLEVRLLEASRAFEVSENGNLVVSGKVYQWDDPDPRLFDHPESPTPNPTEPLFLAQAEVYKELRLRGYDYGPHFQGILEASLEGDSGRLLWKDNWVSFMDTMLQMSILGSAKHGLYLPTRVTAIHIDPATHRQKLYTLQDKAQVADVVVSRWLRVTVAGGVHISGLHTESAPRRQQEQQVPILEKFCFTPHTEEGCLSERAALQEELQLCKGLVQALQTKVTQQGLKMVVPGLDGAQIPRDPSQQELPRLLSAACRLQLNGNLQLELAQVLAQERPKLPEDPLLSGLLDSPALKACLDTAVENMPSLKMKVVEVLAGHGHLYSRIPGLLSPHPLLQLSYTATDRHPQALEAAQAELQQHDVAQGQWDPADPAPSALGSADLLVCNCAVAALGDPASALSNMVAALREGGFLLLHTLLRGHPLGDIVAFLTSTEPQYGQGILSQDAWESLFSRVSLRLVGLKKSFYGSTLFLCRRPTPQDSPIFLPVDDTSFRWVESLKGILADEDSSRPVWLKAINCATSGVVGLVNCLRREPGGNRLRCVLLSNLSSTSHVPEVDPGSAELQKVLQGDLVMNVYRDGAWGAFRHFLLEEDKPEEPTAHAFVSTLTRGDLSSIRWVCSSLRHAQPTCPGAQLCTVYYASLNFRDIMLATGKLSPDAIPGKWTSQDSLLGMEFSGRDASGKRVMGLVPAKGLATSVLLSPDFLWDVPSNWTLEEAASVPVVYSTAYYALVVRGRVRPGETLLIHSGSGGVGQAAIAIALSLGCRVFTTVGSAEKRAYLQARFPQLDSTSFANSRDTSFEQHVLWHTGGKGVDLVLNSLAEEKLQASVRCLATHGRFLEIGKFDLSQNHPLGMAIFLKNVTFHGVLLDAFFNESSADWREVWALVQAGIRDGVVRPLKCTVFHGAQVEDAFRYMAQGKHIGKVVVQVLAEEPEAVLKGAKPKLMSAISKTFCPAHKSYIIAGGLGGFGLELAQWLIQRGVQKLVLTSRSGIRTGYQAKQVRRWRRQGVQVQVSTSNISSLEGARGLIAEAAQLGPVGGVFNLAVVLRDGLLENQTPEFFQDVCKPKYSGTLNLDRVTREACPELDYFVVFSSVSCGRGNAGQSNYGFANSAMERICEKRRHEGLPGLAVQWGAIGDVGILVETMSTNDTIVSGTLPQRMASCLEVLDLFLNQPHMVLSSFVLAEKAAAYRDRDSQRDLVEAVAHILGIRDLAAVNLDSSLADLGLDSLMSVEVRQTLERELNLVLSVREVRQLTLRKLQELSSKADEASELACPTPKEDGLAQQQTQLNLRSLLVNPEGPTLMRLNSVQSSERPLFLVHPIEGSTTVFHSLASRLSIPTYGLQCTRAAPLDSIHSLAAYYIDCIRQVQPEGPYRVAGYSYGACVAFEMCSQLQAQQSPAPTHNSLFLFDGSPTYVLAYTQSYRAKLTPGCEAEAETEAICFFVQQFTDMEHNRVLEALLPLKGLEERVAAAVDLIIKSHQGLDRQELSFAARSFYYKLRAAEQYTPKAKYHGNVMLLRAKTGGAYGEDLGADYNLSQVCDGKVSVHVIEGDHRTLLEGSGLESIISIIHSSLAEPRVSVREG
Quick reference: inhibition at 10 µM of the listed items.

compound | experimentalSystem | unitDescriptor | inhibition at 10 µM
Cc1ccc(C(=O)N2CCC(c3ccc(-c4cnn(CCN(C)C)c4)cc3)CC2)cc1NC(=O)c1ccc(NC(C)C)nc1 | hFASN enzyme (full length) (Homo sapiens, UniProt P49327) | % | 104
Cc1ccc(C(=O)N2CC(c3ccc(-c4cnn(C)c4)cc3)C2)cc1NC(=O)c1cnc(N2CCOCC2)nc1 | hFASN enzyme (full length) (Homo sapiens, UniProt P49327) | % | 104
COCCN(C)c1ccc(C(=O)N2CCC(c3ccc(-c4cnn(C)c4)cc3)CC2)cc1NC(=O)C1CC1 | hFASN enzyme (full length) (Homo sapiens, UniProt P49327) | % | 85
Cc1ccc(C(=O)N2CCC(c3ccc(-c4cnn(C)c4)cc3)CC2)cc1NC(=O)C1CCCC1 | hFASN enzyme (full length) (Homo sapiens, UniProt P49327) | % | 100
Cc1ccc(C(=O)N2CCC(c3ccc(-c4cnn(CC5CC5)c4)cc3)CC2)cc1NC(=O)c1ccc(NC(C)C)nc1 | hFASN enzyme (full length) (Homo sapiens, UniProt P49327) | % | 109
Cc1ccc(C(=O)N2CC(c3ccc(-c4cnn(C)c4)cc3)C2)cc1NC(=O)c1ccc(N(C)C(C)C)nc1 | hFASN enzyme (full length) (Homo sapiens, UniProt P49327) | % | 120
Cc1ccc(C(=O)N2CC(c3ccc(-c4cccnc4N)cc3)C2)cc1NC(=O)c1ccc(N2CCOCC2)nc1 | hFASN enzyme (full length) (Homo sapiens, UniProt P49327) | % | 112
COc1ccccc1-c1ccc(C2CCN(C(=O)c3ccc(C)c(NC(=O)c4ccc(NC(C)C)nc4)c3)CC2)cc1 | hFASN enzyme (full length) (Homo sapiens, UniProt P49327) | % | 86
Cc1ccc(C(=O)N2CCC(c3ccc(-c4cnn(C)c4)cc3)CC2)cc1NC(=O)C1CCN(CC(C)C)CC1 | hFASN enzyme (full length) (Homo sapiens, UniProt P49327) | % | 108
CN(C(=O)C1CC1)c1ccc(C(=O)N2CCC(c3ccc(-c4cnn(C)c4)cc3)CC2)cc1NC(=O)C1CC1 | hFASN enzyme (full length) (Homo sapiens, UniProt P49327) | % | 62
Cc1ccc(C(=O)N2CCC(c3ccc(-c4cnn(C)c4)cc3)CC2)cc1NC(=O)C(C)C | hFASN enzyme (full length) (Homo sapiens, UniProt P49327) | % | 100
Cc1ccc(C(=O)N2CC(c3ccc(-c4ccnn4C)cc3)C2)cc1NC(=O)c1ccc2ccccc2n1 | hFASN enzyme (full length) (Homo sapiens, UniProt P49327) | % | 86
Cc1ccc(C(=O)N2CCC(c3ccc(-c4cnn(C)c4)cc3)CC2)cc1NC(=O)c1ccccc1Cl | hFASN enzyme (full length) (Homo sapiens, UniProt P49327) | % | 103
Cc1ccc(C(=O)N2CCC(c3ccc(-c4ccnn4C)cc3)CC2)cc1NC(=O)c1ccc(NC(C)C)nc1 | hFASN enzyme (full length) (Homo sapiens, UniProt P49327) | % | 102
Cc1ccc(C(=O)N2CCC(c3ccc(-c4cnn(C)c4)cc3)CC2)cc1NC(=O)c1ccccc1C(F)(F)F | hFASN enzyme (full length) (Homo sapiens, UniProt P49327) | % | 97
